- protocolDescription: Cytotoxicity against dog MDCK cells assessed as cell viability after 72 hrs by MTS assay
- Format: cell-based, Canis lupus familiaris
Each item that follows carries a reported log10 CC50 at 72 h.
quantity: log10 CC50 at 72 h (log10 of the value in µM)

- compound: "CN(C)C12CC3CC(CC(C3)C1(C)C)C2"
  quantity: "log10 CC50 at 72 h"
  assayValue: 1.83
- compound: "CN(Cc1ccccc1)C12CC3CC(CC(C3)C1(C)C)C2"
  quantity: "log10 CC50 at 72 h"
  assayValue: -0.15
- compound: "CC1(C)C2CC3CC(C2)CC1(N1CCCCC1)C3"
  quantity: "log10 CC50 at 72 h"
  assayValue: -0.10
- compound: "NC12CC3CC(CC(C3)C13CCCCC3)C2"
  quantity: "log10 CC50 at 72 h"
  assayValue: 0.67
- compound: "CC1(C)C2CC3CC(C2)CC1(N)C3"
  quantity: "log10 CC50 at 72 h"
  assayValue: 1.89
- compound: "CCCC1(CCC)C2CC3CC(C2)CC1(N)C3"
  quantity: "log10 CC50 at 72 h"
  assayValue: 0.46
- compound: "CCNC12CC3CC(CC(C3)C1(C)C)C2"
  quantity: "log10 CC50 at 72 h"
  assayValue: 1.93
- compound: "CC1(C)C2CC3CC(C2)CC1(NCc1ccccc1)C3"
  quantity: "log10 CC50 at 72 h"
  assayValue: 0.04
- compound: "CC(C)C1C2CC3CC(C2)CC1(N)C3 (stereo not given)"
  quantity: "log10 CC50 at 72 h"
  assayValue: 0.93
- compound: "CNC12CC3CC(CC(C3)C1(C)C)C2"
  quantity: "log10 CC50 at 72 h"
  assayValue: 1.85
